biological target: α4β2 receptors (Homo sapiens, UniProt P17787+P43681); construct: expressed in transfected cells; host or cells: Xenopus laevis oocytes (mRNA injection, alpha4:beta2 1:1); format: cell-based; settings: oocytes expressing α4β2 receptors
Sequence (P43681 29-627 limits assumed): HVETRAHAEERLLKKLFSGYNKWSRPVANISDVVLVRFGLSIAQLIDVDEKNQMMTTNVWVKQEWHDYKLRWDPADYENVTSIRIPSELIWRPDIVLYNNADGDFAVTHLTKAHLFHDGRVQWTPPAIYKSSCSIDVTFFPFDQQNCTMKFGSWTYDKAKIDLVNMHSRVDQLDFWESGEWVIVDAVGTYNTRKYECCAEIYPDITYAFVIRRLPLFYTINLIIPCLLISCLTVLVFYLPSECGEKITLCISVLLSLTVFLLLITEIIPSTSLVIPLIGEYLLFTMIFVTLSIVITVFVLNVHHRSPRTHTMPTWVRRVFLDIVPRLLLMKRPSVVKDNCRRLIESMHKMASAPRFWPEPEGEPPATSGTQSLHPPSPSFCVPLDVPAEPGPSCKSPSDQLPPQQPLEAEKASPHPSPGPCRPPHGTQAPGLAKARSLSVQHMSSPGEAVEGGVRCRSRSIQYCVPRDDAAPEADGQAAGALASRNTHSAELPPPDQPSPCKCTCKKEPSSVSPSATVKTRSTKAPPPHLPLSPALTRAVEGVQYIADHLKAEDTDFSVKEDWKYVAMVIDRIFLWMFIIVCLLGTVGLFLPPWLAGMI
Sequence (P17787 26-502): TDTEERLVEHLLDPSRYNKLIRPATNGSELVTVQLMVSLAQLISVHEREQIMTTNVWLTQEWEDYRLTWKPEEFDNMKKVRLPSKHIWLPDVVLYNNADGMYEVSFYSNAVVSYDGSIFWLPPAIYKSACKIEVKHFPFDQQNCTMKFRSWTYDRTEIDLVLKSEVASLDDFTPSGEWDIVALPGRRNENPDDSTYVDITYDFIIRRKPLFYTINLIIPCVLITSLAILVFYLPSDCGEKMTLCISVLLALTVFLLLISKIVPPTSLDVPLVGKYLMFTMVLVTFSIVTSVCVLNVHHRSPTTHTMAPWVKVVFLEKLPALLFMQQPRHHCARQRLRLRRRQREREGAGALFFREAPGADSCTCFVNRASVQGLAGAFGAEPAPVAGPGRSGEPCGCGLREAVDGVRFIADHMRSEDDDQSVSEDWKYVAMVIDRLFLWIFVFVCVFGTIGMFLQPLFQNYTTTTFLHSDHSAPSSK
MEASUREMENT_TYPE: agonist activity/potency on α4β2 receptors (in words)

# MOLECULE, STUDY_SYSTEM, OBS_VALUE
rows = [
    ("C[C@H]1CC[C@@H](c2cccnc2)N1C [5′ Cis-Me-Nic]", "α4β2 receptors (Homo sapiens, UniProt P17787+P43681)", "inactive"),
    ("C[C@@H]1CC[C@@H](c2cccnc2)N1C [5′ Trans-Me-Nic]", "α4β2 receptors (Homo sapiens, UniProt P17787+P43681)", "inactive"),
]
